Reference source for all entries: patent US20210355194A1

Molecular target: human ACE2 (human, UniProt Q9BYF1 18-740)
Sequence (Q9BYF1 18-740 limits assumed): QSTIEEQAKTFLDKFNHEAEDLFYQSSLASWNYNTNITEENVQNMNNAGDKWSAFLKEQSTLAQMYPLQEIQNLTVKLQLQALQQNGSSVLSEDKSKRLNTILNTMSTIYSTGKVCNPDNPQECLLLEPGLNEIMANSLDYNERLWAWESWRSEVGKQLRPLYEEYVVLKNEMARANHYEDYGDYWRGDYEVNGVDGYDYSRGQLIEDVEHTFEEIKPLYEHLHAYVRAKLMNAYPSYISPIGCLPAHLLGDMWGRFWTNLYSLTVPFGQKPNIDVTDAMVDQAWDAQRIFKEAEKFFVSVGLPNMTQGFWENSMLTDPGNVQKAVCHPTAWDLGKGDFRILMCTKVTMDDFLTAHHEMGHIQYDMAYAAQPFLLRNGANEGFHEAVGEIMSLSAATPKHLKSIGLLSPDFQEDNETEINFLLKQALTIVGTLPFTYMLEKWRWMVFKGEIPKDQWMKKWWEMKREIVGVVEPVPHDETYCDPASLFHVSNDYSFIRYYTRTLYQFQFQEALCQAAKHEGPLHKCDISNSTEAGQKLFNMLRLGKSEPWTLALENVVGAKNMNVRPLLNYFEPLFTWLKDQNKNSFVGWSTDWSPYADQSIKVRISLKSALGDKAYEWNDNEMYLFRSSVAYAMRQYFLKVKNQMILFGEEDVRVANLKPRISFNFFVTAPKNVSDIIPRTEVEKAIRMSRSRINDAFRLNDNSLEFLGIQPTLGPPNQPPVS
REPORTED ENDPOINT: pIC50
Numbers only, as −log10 of the molar value.

1. 4-140 (VHH) VHH: EVQLVESGGGLVQPGGSLRLSCAASGRTFSNAAMGWFRQAPGKEREFVARITWNGGSTFYADSVKGRFTISADNSKNTAYLQMNSLKPEDTAVYYCATTENPNPRWGQGTLVTVSS	8.51

Note: attention shifts to another entry.
query: Query pIC50 for 4-49 (VHH) VHH: EVQLVESGGGLVQPGGSLRLSCAASGRTFGDYIMGWFRQAPGKERESVAAINWSAGYTAYADSVKGRFTISADNSKNTAYLQMNSLKPEDTAVYYCARASPNTGWHFDHWGQGTLVTVSS
result: 7.24
